All figures here come from PubChem BioAssay AID2060504.

Tested on: 636577-100-R-J1-PDC complex spheroid viability
Experiment: Anticancer human tumor 636577-100-R-J1-PDC patient-derived endometrial adenocarcinoma cell line growth inhibition [GQUAD]
Details: curve of compound
Text: DNA G-quadruplex Stabilizer Agents in Combinations in Complex Spheroids A high-throughput screen of multi-cell type tumor spheroids was designed to identify active combinations of DNA G-quadruplex stabilizer agents and targeted small molecules. […] Compounds. […] If the clinical Cmax for an agent had not been determined, the highest concentration tested was 10 microM. […]
pIC50: −log10 of the molar value.
Property: pIC50

Measured pIC50 for this entry `CC[C@@]1(O)C(=O)OCc2c1cc1n(c2=O)Cc2cc3c(CN(C)C)c(O)ccc3nc2-1` on 636577-100-R-J1-PDC complex spheroid viability: 7.61

Record COc1cccc2c1C(=O)c1c(O)c3c(c(O)c1C2=O)CC(O)(C(=O)CO)CC3OC1CC(N)C(O)C(C)O1 (configuration not stated) ; system 636577-100-R-J1-PDC complex spheroid viability; pIC50 = > 7.50

pIC50 on 636577-100-R-J1-PDC complex spheroid viability for `CC(=O)O[C@H]1C(=O)[C@@]2(C)[C@H]([C@H](OC(=O)c3ccccc3)[C@]3(O)C[C@H](OC(=O)[C@H](O)[C@@H](NC(=O)c4ccccc4)c4ccccc4)C(C)=C1C3(C)C)[C@]1(OC(C)=O)CO[C@@H]1C[C@@H]2O` is > 7.50

Form: item C=CC(=O)N1CCN(c2nc(=O)n(-c3c(C)ccnc3C(C)C)c3nc(-c4c(O)cccc4F)c(F)cc23)C(C)C1 (configuration not stated) ; test system 636577-100-R-J1-PDC complex spheroid viability; pIC50: < 5.00

pIC50 of `COc1ncnc(C2CC2)c1-c1ncc2cnn(Cc3ccc(-c4nc(C(F)(F)F)cn4C(C)C)cc3)c2n1` , assay on 636577-100-R-J1-PDC complex spheroid viability, is < 5.00

Response field pIC50 (636577-100-R-J1-PDC complex spheroid viability) for item Nc1ccn(C2OC(CO)C(O)C2(F)F)c(=O)n1 (configuration not stated) : > 7.50

Measured on 636577-100-R-J1-PDC complex spheroid viability, `CCc1c2c(nc3ccc(O)cc13)-c1cc3c(c(=O)n1C2)COC(=O)[C@]3(O)CC` has a documented pIC50 of > 9.00

* * *

Entries annotated with measured viability, T/C
system: 636577-100-R-J1-PDC complex spheroid viability; test: Anticancer human tumor 636577-100-R-J1-PDC cell line growth inhibition [GQUAD]; conditions: second compound 3.16 µM; first compound 0.1 µM; stronger effect = lower value;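 further: viability read after seven days of drug exposure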;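 on viability, T/C: luminescence signal used as a proxy for viable cells; 100% = DMSO vehicle control wells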
Quick note: give the figure in %, leave out the unit.

>  <Compound>
COc1ccc([C@@H](O)c2cc(-c3ncnc4cc(N5CCOCC5)ccc34)c(F)cc2Cl)nn1 + CN(C)c1ccc(Nc2c3ccc(NC(=O)CCN4CCCC4)cc3nc3cc(NC(=O)CCN4CCCC4)ccc23)cc1

>  <viability, T/C [%]>
40.5

$$$$
>  <Compound>
C=CCn1c(=O)c2cnc(Nc3ccc(N4CCN(C)CC4)cc3)nc2n1-c1cccc(C(C)(C)O)n1 + CN(C)c1ccc(Nc2c3ccc(NC(=O)CCN4CCCC4)cc3nc3cc(NC(=O)CCN4CCCC4)ccc23)cc1

>  <viability, T/C [%]>
36.8

$$$$

The compound listed as O=C(NO)c1cnc(N2CCN(S(=O)(=O)c3ccc4ccccc4c3)CC2)nc1 + Cc1[nH]c2ccc(F)cc2c1-c1nc2c3cccnc3c3ncccc3c2[nH]1 has a reported viability, T/C of 19.7

* * *

system: 636577-100-R-J1-PDC complex spheroid viability; experiment: Anticancer human tumor 636577-100-R-J1-PDC cell line growth inhibition [GQUAD]; details: second compound 0.316 µM; first compound 0.0999 µM; stronger effect = lower value;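 further: viability read after seven days of drug exposure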;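 on viability, T/C: luminescence signal used as a proxy for viable cells; 100% = DMSO vehicle control wells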
Listed compounds paired with reported viability, T/C
Give just the number in %; leave the unit off.

>  <Compound>
Cn1ncnc1[C@H]1c2n[nH]c(=O)c3cc(F)cc(c23)N[C@@H]1c1ccc(F)cc1 + Cc1[nH]c2ccc(F)cc2c1-c1nc2c3cccnc3c3ncccc3c2[nH]1

>  <Units Label>
%

>  <viability, T/C>
50.9

$$$$
>  <Compound>
Cc1[nH]c2ccccc2c1CCNCc1ccc(/C=C/C(=O)NO)cc1 + Cc1cnc(CNC(=O)c2c(=O)c3ccc(N4CCCN(C)CC4)nc3n3c2sc2ccccc23)cn1

>  <Units Label>
%

>  <viability, T/C>
9.48

$$$$
>  <Compound>
Cn1ncnc1[C@H]1c2n[nH]c(=O)c3cc(F)cc(c23)N[C@@H]1c1ccc(F)cc1 + CN(C)c1ccc(Nc2c3ccc(NC(=O)CCN4CCCC4)cc3nc3cc(NC(=O)CCN4CCCC4)ccc23)cc1

>  <Units Label>
%

>  <viability, T/C>
48.6

$$$$
>  <Compound>
Cn1ncnc1[C@H]1c2n[nH]c(=O)c3cc(F)cc(c23)N[C@@H]1c1ccc(F)cc1 + Cc1cnc(CNC(=O)c2c(=O)c3ccc(N4CCCN(C)CC4)nc3n3c2sc2ccccc23)cn1

>  <Units Label>
%

>  <viability, T/C>
21.8

$$$$
>  <Compound>
CC[C@@]1(O)C(=O)OCc2c1cc1n(c2=O)Cc2cc3c(CN(C)C)c(O)ccc3nc2-1 + CN(C)c1ccc(Nc2c3ccc(NC(=O)CCN4CCCC4)cc3nc3cc(NC(=O)CCN4CCCC4)ccc23)cc1

>  <Units Label>
%

>  <viability, T/C>
22

$$$$

Bench note, 636577-100-R-J1-PDC complex spheroid viability: entry Cc1[nH]c2ccccc2c1CCNCc1ccc(/C=C/C(=O)NO)cc1 + Cc1[nH]c2ccc(F)cc2c1-c1nc2c3cccnc3c3ncccc3c2[nH]1 , its viability, T/C = 7.47

For the compound CCc1c2c(nc3ccc(O)cc13)-c1cc3c(c(=O)n1C2)COC(=O)[C@]3(O)CC + CN(C)c1ccc(Nc2c3ccc(NC(=O)CCN4CCCC4)cc3nc3cc(NC(=O)CCN4CCCC4)ccc23)cc1 , the measured viability, T/C on 636577-100-R-J1-PDC complex spheroid viability was 19.2

Item Cc1[nH]c2ccccc2c1CCNCc1ccc(/C=C/C(=O)NO)cc1 + CN(C)c1ccc(Nc2c3ccc(NC(=O)CCN4CCCC4)cc3nc3cc(NC(=O)CCN4CCCC4)ccc23)cc1 was tested on 636577-100-R-J1-PDC complex spheroid viability; the reported viability, T/C is 8.97

* * *

system: 636577-100-R-J1-PDC complex spheroid viability; assay: Anticancer human tumor 636577-100-R-J1-PDC cell line growth inhibition [GQUAD]; conditions: second compound 3.16 µM; first compound 0.000999 µM; stronger effect = lower value;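 further: viability read after seven days of drug exposure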;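 on viability, T/C: luminescence signal used as a proxy for viable cells; 100% = DMSO vehicle control wells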
Entries annotated with measured viability, T/C
Kindly answer with a numeric value in %, unit omitted.

Below, each entry is followed by its recorded viability, T/C result.
>  <Compound>
CCc1c2c(nc3ccc(O)cc13)-c1cc3c(c(=O)n1C2)COC(=O)[C@]3(O)CC + CN(C)c1ccc(Nc2c3ccc(NC(=O)CCN4CCCC4)cc3nc3cc(NC(=O)CCN4CCCC4)ccc23)cc1

>  <Units Label>
%

>  <Reported Value>
29.8

$$$$
>  <Compound>
Cn1ncnc1[C@H]1c2n[nH]c(=O)c3cc(F)cc(c23)N[C@@H]1c1ccc(F)cc1 + Cc1[nH]c2ccc(F)cc2c1-c1nc2c3cccnc3c3ncccc3c2[nH]1

>  <Units Label>
%

>  <Reported Value>
36

$$$$

Next:
Readout viability, T/C for Cn1ncnc1[C@H]1c2n[nH]c(=O)c3cc(F)cc(c23)N[C@@H]1c1ccc(F)cc1 + CN(C)c1ccc(Nc2c3ccc(NC(=O)CCN4CCCC4)cc3nc3cc(NC(=O)CCN4CCCC4)ccc23)cc1 , test system 636577-100-R-J1-PDC complex spheroid viability, was 42.7

* * *

system: 636577-100-R-J1-PDC complex spheroid viability; experiment: Anticancer human tumor 636577-100-R-J1-PDC cell line growth inhibition [GQUAD]; settings: second compound 10 µM; first compound 0.316 µM; stronger effect = lower value;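 further: viability read after seven days of drug exposure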;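 on viability, T/C: luminescence signal used as a proxy for viable cells; 100% = DMSO vehicle control wells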
Property: viability, T/C (%)
Just the number please, in %, no unit attached.

Recorded results for 3 compounds are shown here.
>  <Compound>
C#Cc1c(F)ccc2cc(O)cc(-c3ncc4c(N5CC6CCC(C5)N6)nc(OCC56CCCN5CC(F)C6)nc4c3F)c12 (centres undefined) + Cc1cnc(CNC(=O)c2c(=O)c3ccc(N4CCCN(C)CC4)nc3n3c2sc2ccccc23)cn1

>  <Target Under Test>
636577-100-R-J1-PDC complex spheroid viability

>  <Units Label>
%

>  <viability, T/C>
20.3

$$$$
>  <Compound>
COc1cccc2c1C(=O)c1c(O)c3c(c(O)c1C2=O)CC(O)(C(=O)CO)CC3OC1CC(N)C(O)C(C)O1 (centres undefined) + Cc1[nH]c2ccc(F)cc2c1-c1nc2c3cccnc3c3ncccc3c2[nH]1

>  <Target Under Test>
636577-100-R-J1-PDC complex spheroid viability

>  <Units Label>
%

>  <viability, T/C>
16.1

$$$$
>  <Compound>
CC(=O)O[C@H]1C(=O)[C@@]2(C)[C@H]([C@H](OC(=O)c3ccccc3)[C@]3(O)C[C@H](OC(=O)[C@H](O)[C@@H](NC(=O)c4ccccc4)c4ccccc4)C(C)=C1C3(C)C)[C@]1(OC(C)=O)CO[C@@H]1C[C@@H]2O + CN(C)c1ccc(Nc2c3ccc(NC(=O)CCN4CCCC4)cc3nc3cc(NC(=O)CCN4CCCC4)ccc23)cc1

>  <Target Under Test>
636577-100-R-J1-PDC complex spheroid viability

>  <Units Label>
%

>  <viability, T/C>
2.57

$$$$

Shift focus to the following entry.
For this compound ( COc1cc(C2c3cc4c(cc3C(OC3OC5COC(C)OC5C(O)C3O)C3COC(=O)C23)OCO4)cc(OC)c1O (centres undefined) + CN(C)c1ccc(Nc2c3ccc(NC(=O)CCN4CCCC4)cc3nc3cc(NC(=O)CCN4CCCC4)ccc23)cc1 ), measured viability, T/C is 4.08
